From: paper PMC11576293

Listed below: viability at 4 days, 50 µM values for each entry.
# Procedure Text: Cell viability assay (MTT) on normal cells
# Format: cell-based
# Test Context: human, MCF-10A normal mammary gland epithelial cells, 4 days incubation
Provide only the numeric value, understood in %.

Consider the worked cases shown below.
{"Molecule": "COc1ccc(-c2cc(-c3cccc(OC)c3)nc(SC(C)C)n2)cc1 [Compound 19]", "Unit": "%", "viability at 4 days, 50 µM": 90}
{"Molecule": "COc1ccc(-c2cc(-c3ccc(Cl)cc3)nc(SCc3ccccc3)n2)cc1 [Compound 14]", "Unit": "%", "viability at 4 days, 50 µM": 90}
{"Molecule": "C=CCSc1nc(-c2ccc(Cl)cc2)cc(-c2ccc(OC)cc2)n1 [Compound 13]", "Unit": "%", "viability at 4 days, 50 µM": 90}
{"Molecule": "COc1ccc(-c2cc(-c3ccc(Cl)cc3)nc(SC)n2)cc1OC [Compound 23]", "Unit": "%", "viability at 4 days, 50 µM": 90}

# evaluate next
# query: viability at 4 days, 50 µM of entry C=CCSc1nc(-c2ccc(Cl)cc2)cc(-c2ccc(OC)c(OC)c2)n1 [Compound 27]
89

* * *

# System: SF-268
# Procedure Text: NCI-60 single-dose screen
# Type: cell-based
# Test Context: Homo sapiens, single dose 10 µM, '-' = no inhibition, read-out: % Growth Inhibition
# key: entry, value: inhibition at 10 µM

Here is how some compounds turned out for inhibition at 10 µM.
{"Compound": "COc1ccc(-c2cc(-c3ccc(Cl)cc3)nc(SC(C)C)n2)cc1 [Compound 12]", "inhibition at 10 µM": "< 0%"}
{"Compound": "C=CCSc1nc(-c2ccc(Cl)cc2)cc(-c2ccc(OC)cc2)n1 [Compound 13]", "inhibition at 10 µM": "< 0%"}

Let us examine a further case.
Any idea what inhibition at 10 µM was measured for CCCSc1nc(-c2ccc(OC)cc2)cc(-c2cccc(OC)c2)n1 [Compound 18] ?
< 0%

* * *

Catalogue of compounds with associated inhibition at 10 µM
# Tested on: NCI/ADR-RES
# Procedure Text: NCI-60 single-dose screen
# Format: cell-based
# Test Context: Homo sapiens, single dose 10 µM, '-' = no inhibition, read-out: % Growth Inhibition
Give just the number in %; leave the unit off.

What does the data say about its inhibition at 10 µM? Entry: "COc1ccc(-c2cc(-c3cccc(OC)c3)nc(SC(C)C)n2)cc1"
9.86

Please answer likewise for "COc1ccc(-c2cc(-c3ccc(Cl)cc3)nc(SCc3ccccc3)n2)cc1OC"
14.3

Quick one: "C=CCSc1nc(-c2ccc(Cl)cc2)cc(-c2ccc(OC)c(OC)c2)n1"
21.8

Entry to check: "COc1ccc(-c2cc(-c3ccc(Cl)cc3)nc(SC)n2)cc1"
9.84

# iterate: "CCSc1nc(-c2ccc(Cl)cc2)cc(-c2ccc(OC)cc2)n1"
1.42

Item: "CCSc1nc(-c2ccc(Cl)cc2)cc(-c2ccc(OC)c(OC)c2)n1"
17.5

Could you do the same for "CCCSc1nc(-c2ccc(Cl)cc2)cc(-c2ccc(OC)c(OC)c2)n1" , please?
11.2

* * *

inhibition at 10 µM: recorded values
# Tested on: LOX IMVI
# Procedure Text: NCI-60 single-dose screen
# Type: cell-based
# Test Context: Homo sapiens, single dose 10 µM, '-' = no inhibition, read-out: % Growth Inhibition

{"Compound": "COc1ccc(CSc2nc(-c3ccc(Cl)cc3)cc(-c3ccc(OC)cc3)n2)cc1 [Compound 15]", "Assayed Target": "LOX IMVI", "Readout Name": "inhibition at 10 µM", "Result": "< 0%"}
{"Compound": "CCSc1nc(-c2ccc(Cl)cc2)cc(-c2ccc(OC)cc2)n1 [Compound 10]", "Assayed Target": "LOX IMVI", "Readout Name": "inhibition at 10 µM", "Result": "< 0%"}

Checklist item: inhibition at 10 µM tested on LOX IMVI, entry CCCSc1nc(-c2ccc(OC)cc2)cc(-c2cccc(OC)c2)n1 [Compound 18] , value?
< 0%

* * *

# System: CCRF-CEM
# Procedure Text: NCI-60 single-dose screen
# Type: cell-based
# Test Context: Homo sapiens, single dose 10 µM, '-' = no inhibition, read-out: % Growth Inhibition
Readout Name: inhibition at 10 µM (%)
Dear colleague, please return just the value in %, with no unit written.

{"Given Smiles": "CCCSc1nc(-c2ccc(Cl)cc2)cc(-c2ccc(OC)c(OC)c2)n1", "inhibition at 10 µM (%)": 11.2}
{"Given Smiles": "COc1ccc(-c2cc(-c3cccc(OC)c3)nc(SC(C)C)n2)cc1", "inhibition at 10 µM (%)": 9.07}
{"Given Smiles": "COc1ccc(-c2cc(-c3ccc(Cl)cc3)nc(SC)n2)cc1OC", "inhibition at 10 µM (%)": 17.9}

Using the record for "CCSc1nc(-c2ccc(Cl)cc2)cc(-c2ccc(OC)c(OC)c2)n1" , report its inhibition at 10 µM.
19.3

* * *

# Tested on: HCT-116
# Procedure Text: NCI-60 single-dose screen
# Type: cell-based
# Test Context: Homo sapiens, single dose 10 µM, '-' = no inhibition, read-out: % Growth Inhibition
inhibition at 10 µM values, listed per item
Your answer is read as %, so omit the unit and give the number.

# count of solved cases: 6
{"Compound": "CCSc1nc(-c2ccc(OC)cc2)cc(-c2cccc(OC)c2)n1 [Compound 17]", "inhibition at 10 µM (%)": 5.86}
{"Compound": "COc1ccc(-c2cc(-c3cccc(OC)c3)nc(SC(C)C)n2)cc1 [Compound 19]", "inhibition at 10 µM (%)": 23.8}
{"Compound": "C=CCSc1nc(-c2ccc(Cl)cc2)cc(-c2ccc(OC)c(OC)c2)n1 [Compound 27]", "inhibition at 10 µM (%)": 21.8}
{"Compound": "CCSc1nc(-c2ccc(Cl)cc2)cc(-c2ccc(OC)c(OC)c2)n1 [Compound 24]", "inhibition at 10 µM (%)": 30}
{"Compound": "COc1ccc(CSc2nc(-c3ccc(Cl)cc3)cc(-c3ccc(OC)c(OC)c3)n2)cc1 [Compound 29]", "inhibition at 10 µM (%)": 30.2}
{"Compound": "COc1ccc(-c2cc(-c3ccc(Cl)cc3)nc(SC(C)C)n2)cc1 [Compound 12]", "inhibition at 10 µM (%)": 19.6}

Consider the record given below.
Query (compound): CCCSc1nc(-c2ccc(OC)cc2)cc(-c2cccc(OC)c2)n1 [Compound 18] ; field requested: inhibition at 10 µM
3.37

* * *

# System: KM12
# Procedure Text: NCI-60 single-dose screen
# Assay type: cell-based
# Test Context: Homo sapiens, single dose 10 µM, '-' = no inhibition, read-out: % Growth Inhibition
inhibition at 10 µM values by entry
Write down the numeric answer in % and omit the unit.

{"Compound": "CCCSc1nc(-c2ccc(Cl)cc2)cc(-c2ccc(OC)c(OC)c2)n1 [Compound 25]", "Assayed Target": "KM12", "inhibition at 10 µM [%]": 25.5}
{"Compound": "CCCSc1nc(-c2ccc(Cl)cc2)cc(-c2ccc(OC)cc2)n1 [Compound 11]", "Assayed Target": "KM12", "inhibition at 10 µM [%]": 1.24}
{"Compound": "CCSc1nc(-c2ccc(OC)cc2)cc(-c2cccc(OC)c2)n1 [Compound 17]", "Assayed Target": "KM12", "inhibition at 10 µM [%]": 2.23}

Entry under review: COc1ccc(-c2cc(-c3ccc(Cl)cc3)nc(SCc3ccccc3)n2)cc1OC [Compound 28] . Reported inhibition at 10 µM?
23.2

Also COc1ccc(-c2cc(-c3ccc(Cl)cc3)nc(SC)n2)cc1OC [Compound 23] , if possible.
25.4

Another: CCSc1nc(-c2ccc(Cl)cc2)cc(-c2ccc(OC)c(OC)c2)n1 [Compound 24]
29.8

Ok, now CCCSc1nc(-c2ccc(OC)cc2)cc(-c2cccc(OC)c2)n1 [Compound 18]
1.47

Further, for COc1ccc(-c2cc(-c3ccc(Cl)cc3)nc(SC(C)C)n2)cc1 [Compound 12] ?
9.45

Next record, please: COc1ccc(-c2cc(-c3ccc(Cl)cc3)nc(SC(C)C)n2)cc1OC [Compound 26]
1.72

Item: COc1ccc(-c2cc(-c3ccc(Cl)cc3)nc(SC)n2)cc1 [Compound 9]
5.71

And what about the compound COc1ccc(-c2cc(-c3cccc(OC)c3)nc(SC)n2)cc1 [Compound 16] ?
6.2

Same lookup for COc1ccc(-c2cc(-c3cccc(OC)c3)nc(SC(C)C)n2)cc1 [Compound 19] , please.
5.72

Now the compound C=CCSc1nc(-c2ccc(Cl)cc2)cc(-c2ccc(OC)cc2)n1 [Compound 13]
0.8

Same lookup for C=CCSc1nc(-c2ccc(Cl)cc2)cc(-c2ccc(OC)c(OC)c2)n1 [Compound 27] , please.
3.43

What about CCSc1nc(-c2ccc(Cl)cc2)cc(-c2ccc(OC)cc2)n1 [Compound 10] ?
1.5
